biological target: Cholecystokinin receptor type A (Cavia porcellus, UniProt Q63931)
*1 amine or outer side, *2 acyl side, *3 side chain or, on linkers, in order; H or OH if unused. Where a SMILES comes first, the peptide text is derived from it. [ ]: non-standard residue; d: D form. The star is where a group is joined. Hydrocinnamoyl(4-OSO3H) = O=C(CCc1ccc(OS(=O)(=O)O)cc1)*; X5 = CCC[C@H]1CCN([*:1])[C@@H]1C(=O)[*:2]; X4 = O=C(c1ccc2cc(OS(=O)(=O)O)ccc2c1)*; NMeF = CN[C@@H](Cc1ccccc1)C(=O)O; NMeL = CN[C@@H](CC(C)C)C(=O)O; Nle = CCCC[C@H](N)C(=O)O
assay-metric: pIC50
Answers are plain numbers, as −log10 of the molar value.

CCC[C@H]1CCN(C(=O)[C@H](Cc2c[nH]c3ccccc23)NC(=O)CNC(=O)[C@@H]2CCCN2C(=O)CCc2ccc(OS(=O)(=O)O)cc2)[C@@H]1C(=O)N[C@@H](CC(=O)O)C(=O)N(C)[C@@H](Cc1ccccc1)C(N)=O ({Hydrocinnamoyl(4-OSO3H)}-PGW[X5]D[NMeF]-NH2) = 8.14
CCCC[C@H](NC(=O)c1ccc2cc(OS(=O)(=O)O)ccc2c1)C(=O)NCC(=O)N[C@@H](Cc1c[nH]c2ccccc12)C(=O)N[C@@H](CCCC)C(=O)N[C@@H](CC(=O)O)C(=O)N[C@@H](Cc1ccccc1)C(N)=O (X4-[Nle]GW[Nle]DF-NH2) = 6.05
CCCC[C@H](NC(=O)[C@H](Cc1c[nH]c2ccccc12)NC(=O)CN1CC[C@H](NC(=O)CCc2ccc(OS(=O)(=O)O)cc2)C1=O)C(=O)N[C@@H](CC(=O)O)C(=O)N[C@@H](Cc1ccccc1)C(N)=O = 6.89

Query molecule follows.
Challenge: State the recorded pIC50 for this entry: CCCC[C@H](NC(=O)CCc1ccc(OS(=O)(=O)O)cc1)C(=O)NCC(=O)N[C@@H](Cc1c[nH]c2ccccc12)C(=O)N(C)[C@@H](CC(C)C)C(=O)N[C@@H](CC(=O)O)C(=O)N[C@@H](Cc1ccccc1)C(N)=O ({Hydrocinnamoyl(4-OSO3H)}-[Nle]GW[NMeL]DF-NH2)
Response given: 6.85

* * *

Target chain: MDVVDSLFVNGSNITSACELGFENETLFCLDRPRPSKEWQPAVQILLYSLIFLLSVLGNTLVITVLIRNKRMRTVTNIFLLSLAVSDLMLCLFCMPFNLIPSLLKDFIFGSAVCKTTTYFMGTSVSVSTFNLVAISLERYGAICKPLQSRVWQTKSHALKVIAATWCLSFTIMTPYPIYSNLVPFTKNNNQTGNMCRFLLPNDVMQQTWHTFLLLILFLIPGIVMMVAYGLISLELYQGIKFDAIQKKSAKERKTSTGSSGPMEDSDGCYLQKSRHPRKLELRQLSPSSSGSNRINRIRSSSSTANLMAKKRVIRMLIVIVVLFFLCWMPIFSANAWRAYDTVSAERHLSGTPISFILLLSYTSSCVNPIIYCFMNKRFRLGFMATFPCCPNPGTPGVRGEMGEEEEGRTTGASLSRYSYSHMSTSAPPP
Where a SMILES comes first, the peptide text is derived from it. [ ]: non-standard residue; d: D form. The star is where a group is joined. Hydrocinnamoyl(4-OSO3H) = O=C(CCc1ccc(OS(=O)(=O)O)cc1)*; NMeF = CN[C@@H](Cc1ccccc1)C(=O)O; Nle = CCCC[C@H](N)C(=O)O; Ava = NCCCCC(=O)O
Provide the recorded IC50 for the entries that follow.
Give bare numbers, in nM.

CC(C)C[C@H](NC(=O)[C@H](Cc1c[nH]c2ccccc12)NC(=O)CCCCNC(=O)CCc1ccc(OS(=O)(=O)O)cc1)C(=O)N[C@@H](CC(=O)O)C(=O)N[C@@H](Cc1ccccc1)C(N)=O ({Hydrocinnamoyl(4-OSO3H)-Ava}-WLDF-NH2) = 150

Query compound follows.
Challenge: State the recorded IC50 for this entry: CCCC[C@H](NC(=O)CCc1ccc(OS(=O)(=O)O)cc1)C(=O)NCC(=O)N[C@@H](Cc1c[nH]c2ccccc12)C(=O)N1CCC[C@H]1C(=O)N[C@@H](CC(=O)O)C(=O)N(C)[C@@H](Cc1ccccc1)C(N)=O ({Hydrocinnamoyl(4-OSO3H)}-[Nle]GWPD[NMeF]-NH2)
Response given: 81

* * *

system: Cholecystokinin receptor type A (Cavia porcellus); assay: Ratio for CCK-A receptor of guinea pig pancreas (IC50(nM)) to CCK-B receptor of guinea pig cortex (IC50(nM))
*1 amine or outer side, *2 acyl side, *3 side chain or, on linkers, in order; H or OH if unused. Where a SMILES comes first, the peptide text is derived from it. [ ]: non-standard residue; d: D form. The star is where a group is joined. Hydrocinnamoyl(4-OSO3H) = O=C(CCc1ccc(OS(=O)(=O)O)cc1)*; X2 = O=C([C@@H]1CC(OS(=O)(=O)O)CN1[*:1])[*:2]; X4 = O=C(c1ccc2cc(OS(=O)(=O)O)ccc2c1)*; X1 = CCCC1CCN([*:1])[C@@H]1C(=O)[*:2]; X3 = O=C(/C(=C/c1ccccc1)N[*:1])[*:2]; NMeF = CN[C@@H](Cc1ccccc1)C(=O)O; NMeL = CN[C@@H](CC(C)C)C(=O)O; Nle = CCCC[C@H](N)C(=O)O; Ava = NCCCCC(=O)O
Class boundaries, taken from values of Ratio, are as follows: bucket A (below 0.6), bucket B (0.6 to below 10), bucket C (10 or more)

Solved cases (5 shown):
CCCC[C@H](NC(=O)c1ccc2cc(OS(=O)(=O)O)ccc2c1)C(=O)NCC(=O)N[C@@H](Cc1c[nH]c2ccccc12)C(=O)N[C@@H](CCCC)C(=O)N[C@@H](CC(=O)O)C(=O)N[C@@H](Cc1ccccc1)C(N)=O (X4-[Nle]GW[Nle]DF-NH2) = bucket A
CCCC[C@H](NC(=O)CCc1ccc(OS(=O)(=O)O)cc1)C(=O)NCC(=O)N[C@@H](Cc1c[nH]c2ccccc12)C(=O)N[C@@H](CCCC)C(=O)N[C@@H](CC(=O)O)C(=O)N(C)[C@@H](Cc1ccccc1)C(N)=O ({Hydrocinnamoyl(4-OSO3H)}-[Nle]GW[Nle]D[NMeF]-NH2) = bucket A
CCCC[C@H](NC(=O)CCc1ccc(OS(=O)(=O)O)cc1)C(=O)NCC(=O)N[C@@H](Cc1c[nH]c2ccccc12)C(=O)N(C)[C@@H](CC(C)C)C(=O)N[C@@H](CC(=O)O)C(=O)N[C@@H](Cc1ccccc1)C(N)=O ({Hydrocinnamoyl(4-OSO3H)}-[Nle]GW[NMeL]DF-NH2) = bucket C
CCCC[C@H](NC(=O)CCc1ccc(OS(=O)(=O)O)cc1)C(=O)NCC(=O)N[C@@H](Cc1c[nH]c2ccccc12)C(=O)N[C@@H](CCCC)C(=O)N1CC(OS(=O)(=O)O)C[C@H]1C(=O)N[C@@H](Cc1ccccc1)C(N)=O (stereo not given in full) ({Hydrocinnamoyl(4-OSO3H)}-[Nle]GW[Nle][X2]F-NH2) = bucket A
CCCC[C@H](NC(=O)CCc1ccc(OS(=O)(=O)O)cc1)C(=O)NCC(=O)N[C@@H](Cc1c[nH]c2ccccc12)C(=O)N1CCC(CCC)[C@H]1C(=O)N[C@@H](CC(=O)O)C(=O)N(C)[C@@H](Cc1ccccc1)C(N)=O (stereo not given in full) ({Hydrocinnamoyl(4-OSO3H)}-[Nle]GW[X1]D[NMeF]-NH2) = bucket C

Challenge: The entry to classify is CCCC[C@H](NC(=O)[C@H](Cc1c[nH]c2ccccc12)NC(=O)CNC(=O)[C@@H](CCCC)NC(=O)CCc1ccc(OS(=O)(=O)O)cc1)C(=O)N[C@@H](CC(=O)O)C(=O)N[C@@H](Cc1ccccc1)C(N)=O ; which class holds it?
Response given: bucket C

Challenge: The entry to classify is CCCC[C@H](NC(=O)[C@H](Cc1c[nH]c2ccccc12)NC(=O)CN1CC[C@H](NC(=O)CCc2ccc(OS(=O)(=O)O)cc2)C1=O)C(=O)N[C@@H](CC(=O)O)C(=O)N[C@@H](Cc1ccccc1)C(N)=O ; which class holds it?
Response given: bucket B

Challenge: The entry to classify is CC(C)C[C@H](NC(=O)[C@H](Cc1c[nH]c2ccccc12)NC(=O)CCCCNC(=O)CCc1ccc(OS(=O)(=O)O)cc1)C(=O)N[C@@H](CC(=O)O)C(=O)N[C@@H](Cc1ccccc1)C(N)=O ({Hydrocinnamoyl(4-OSO3H)-Ava}-WLDF-NH2) ; which class holds it?
Response given: bucket C

Challenge: The entry to classify is CCCC[C@H](NC(=O)[C@H](Cc1c[nH]c2ccccc12)NC(=O)CNC(=O)[C@H](CC(C)C)NC(=O)CCc1ccc(OS(=O)(=O)O)cc1)C(=O)N[C@@H](CC(=O)O)C(=O)N[C@@H](Cc1ccccc1)C(N)=O ({Hydrocinnamoyl(4-OSO3H)}-LGW[Nle]DF-NH2) ; which class holds it?
Response given: bucket B

Challenge: The entry to classify is CCCC[C@H](NC(=O)CCc1ccc(OS(=O)(=O)O)cc1)C(=O)NCC(=O)N[C@@H](Cc1c[nH]c2ccccc12)C(=O)N[C@@H](CCCC)C(=O)N[C@@H](CC(=O)O)C(=O)N/C(=C\c1ccccc1)C(N)=O ({Hydrocinnamoyl(4-OSO3H)}-[Nle]GW[Nle]D[X3]-NH2) ; which class holds it?
Response given: bucket B

These data points were gathered from ChEMBL document CHEMBL1125509.
